Test system: MDA-N
experiment: NCI tumour cell line growth inhibition, 48 h
Active and inactive are the calls of the source. Rule as the data show it: active = GI50 up to about 1.1 µM and inactive = higher.
# Lookup of reported GI50 keyed by entry
readout: GI50

> print(dat)
                                   molecule  target.entity       measured.value
1  COc1ccc2c3c1OC1C34CCN(C)C(C2)C4=CC(I)C1(OC)OC (configuration not stated)          MDA-N   6.14 µM (inactive)
2  N#Cc1nc2ccccc2nc1N1CCN(c2ccc([N+](=O)[O-])cc2)CC1          MDA-N  > 100 µM (inactive)
3    COc1ccc(-c2cc(-c3ccccc3)nc(N)n2)c(O)c1          MDA-N   4.55 µM (inactive)
4  O=c1[nH]c(=O)n(COCc2ccccc2)cc1Nc1ccc(Br)cc1          MDA-N  > 100 µM (inactive)
5  CN(C)CCNC(=O)c1cccc2c(NC(CS)C(=O)O)c3ccccc3nc12 (configuration not stated)          MDA-N   4.55 µM (inactive)
6  C=C1NC(=O)C(CC(C(=O)C(=O)Nc2c(C)cccc2C(C)(C)C)C(=O)c2ccc3ccccc3c2)C(=O)N1 (configuration not stated)          MDA-N  > 100 µM (inactive)
7    C(CCc1nnc2c(n1)CCCC2)Cc1nnc2c(n1)CCCC2          MDA-N   88.3 µM (inactive)

* * *

# Lookup of reported GI50 keyed by entry
Tested on: ACHN
experiment: NCI tumour cell line growth inhibition, 48 h
The source made the active and inactive calls. Cut-off read from the data, not from the text of the source: active = GI50 up to about 1.1 µM and inactive = higher.
readout: GI50

> print(dat)
                                   compound       measured.value
1  COC(=O)C([C@H]1CC[C@H](OCc2ccccc2)[C@@]1(O)COCc1ccccc1)C(C)(O)CCc1ccccc1 (stereo partly specified)   12.5 µM (inactive)
2  O=C(N/N=C1/C(=O)c2c3ccccc3cc3cccc1c23)c1ccccc1   29.1 µM (inactive)
3  Cc1cccc(C)c1NC(=O)C1=NC(=S)NC(c2ccccc2)C1c1nc2ccccc2s1 (stereo unspecified)  > 100 µM (inactive)
4     CCO/C=C(\C(=O)OC)S(=O)(=O)c1ccc(C)cc1  > 100 µM (inactive)
5  C=C1NC(=O)C(CC(C(=O)C(=O)Nc2c(C)cccc2C(C)(C)C)C(=O)c2ccc3ccccc3c2)C(=O)N1 (stereo unspecified)  > 100 µM (inactive)
6  CC(C)c1cc2c(O)c(c1)Cc1cc(C(C)C)cc(c1O)Cc1cc(C(C)C)cc(c1O)Cc1cc(C(C)C)cc(c1O)Cc1cc(C(C)C)cc(c1O)Cc1cc(C(C)C)cc(c1O)C2  > 100 µM (inactive)

* * *

Tested on: MDA-MB-435
experiment: NCI tumour cell line growth inhibition, 48 h
Activity calls are given as the source filed them. Cut-off read from the data, not from the text of the source: active = GI50 up to about 1.1 µM and inactive = higher.
Labels: active, inactive

compound	category.label
OCCOc1ccc(-c2cc(-c3ccccn3)nc(-c3ccccn3)c2)cc1	active
CNc1nc2c(C)ccc3nc(N(C)C)nc-3c2n1C	inactive
CCCCS(=O)(=O)CCC(N)P(=O)(O)O (stereo unspecified)	inactive
CC(C)=NNc1cnnc2ccc([N+](=O)[O-])cc12	inactive
NC(=O)NC(=O)c1cccc(NC(=O)CCl)c1	active
Cc1c(/C=N/NC(=S)Nc2ccccc2)c(=O)n(-c2ccccc2)n1C	inactive
CCCCCCCCCCCCCCCCCCOCC(O)COP(=O)(O)OCC1OC(n2cc(F)c(=O)[nH]c2=O)CC1O (stereo unspecified)	inactive
Cc1cc(C)n2nc3nc(N)c(C#N)c(-c4ccccc4)c3c2n1	inactive
CC(=O)NC(C)c1ccc(/N=N/N2CCCC2)cc1 (stereo unspecified)	inactive
NNC(=O)CSc1nc2ccccc2c(=O)n1N	inactive
N#CSCc1cccc(Nc2cc(=O)[nH]c(=O)[nH]2)c1	inactive
CCCCCCCCCCCCCCCCCc1cccc(OCOCCOC)c1C(=O)O	inactive
CC(C)(C)c1ccc(S(=O)(=O)N2C(c3cccc(C4CC[C@@H](C(=O)O)N4S(=O)(=O)c4ccc(C(C)(C)C)cc4)c3)CC[C@H]2C(=O)O)cc1 (stereo partly specified)	inactive
COC(CN(C)C(=S)Nc1cccc2ccccc12)OC	inactive
COC(=O)[C@@H]1C[C@H]([Se]c2ccccc2)CN1S(=O)(=O)c1ccc(C)cc1	inactive
CC1=C(C(=O)OC23CC4CC(CC(C4)C2)C3)C(c2ccccc2OC(F)F)C(C(=O)OC23CC4CC(CC(C4)C2)C3)=C(C)N1 (stereo unspecified)	inactive

* * *

Tested on: RXF 393
experiment: NCI tumour cell line growth inhibition, 48 h
Active and inactive are the calls of the source. No stated cut-off is given here; in the data, active = GI50 up to about 1.1 µM and inactive = higher.
readout: GI50

molecule	readout	measured.value
C=C(C)[C@@]12C[C@H](OC(=O)[C@H](O)[C@@H](NC(=O)c3ccccc3)c3ccccc3)C(C)=C1[C@@H](OC(C)=O)C(=O)[C@@]1(C)C([C@@H]2OC(=O)c2cc(F)cc(F)c2)C2(OC(C)=O)CO[C@@H]2C[C@@H]1O (some centres undefined)	GI50	0.0578 µM (active)
CC1=C(C(=O)OC23CC4CC(CC(C4)C2)C3)C(c2ccccc2OC(F)F)C(C(=O)OC23CC4CC(CC(C4)C2)C3)=C(C)N1 (centres undefined)	GI50	> 100 µM (inactive)
COC(CN(C)C(=S)Nc1cccc2ccccc12)OC	GI50	> 10 µM (inactive)
COC(=O)c1ccc(C)cc1C1CN=NC12Cc1cc(C)c(C)cc1C2=O (centres undefined)	GI50	31.8 µM (inactive)
O=C(C=P(c1ccccc1)(c1ccccc1)c1ccccc1)c1cccc(-c2cccc([N+](=O)[O-])c2)c1	GI50	5.66 µM (inactive)
CN(C)/C=N/c1nc2c(ncn2C2OC(CO)C(O)C2O)c(=O)[nH]1 (centres undefined)	GI50	> 100 µM (inactive)
COC(=O)N/N=C(\C)c1sc(-c2nc(C)c(/C(C)=N/NC(=O)OC)s2)nc1C	GI50	> 100 µM (inactive)
COc1cccc(C2CC(C)(O)Oc3cc4c(cc32)OCO4)c1 (centres undefined)	GI50	28 µM (inactive)
CC(=O)O[C@H]1CC[C@@]2(C)C(=CC[C@@H]3[C@@H]2CC[C@]2(C)C(=N/O)/C(=C/c4ccc([N+](=O)[O-])cc4)C[C@@H]32)C1	GI50	32.4 µM (inactive)
O=c1[nH][nH]c(=O)n1Cc1ccccc1Cn1c(=O)[nH][nH]c1=O	GI50	> 100 µM (inactive)
C[C@@H](CC(O)C1OC1(C)C)[C@@H]1CC[C@]2(C)C3=CCC4C(C)(C)C(O)CC[C@]4(C)C3CCC12C (some centres undefined)	GI50	16.7 µM (inactive)
O=C(c1ccccc1)c1c2ccccn2c2cccc[n+]12	GI50	> 100 µM (inactive)
N#Cc1c(/C=C/c2ccccc2)c2c([nH]c1=S)CCCCC2	GI50	> 100 µM (inactive)
CC(C)(C)C1CCC(O)(c2ccccc2)CC1 (centres undefined)	GI50	50.7 µM (inactive)
CC12O[Te]34OC1(C)C(C)(O3)C2(C)O4	GI50	14.8 µM (inactive)
CC1=NN(c2ccccc2)C2(C1)C(Cl)C(=O)N2c1nc2ccccc2s1 (centres undefined)	GI50	23.8 µM (inactive)
N#CNCC(COCc1ccccc1)c1ccccc1 (centres undefined)	GI50	99.1 µM (inactive)
CCC/C(Cl)=N\OC(=O)Nc1ccc(OC(F)(F)F)cc1	GI50	16 µM (inactive)
O=C1NN(Cc2ccccc2)C(=O)N2CCC[C@@H]12	GI50	> 100 µM (inactive)
CSc1nc(Cl)c2c(n1)Sc1nc3ccccc3n1C2O (centres undefined)	GI50	1.58 µM (inactive)
c1ccc2c(c1)SC(=C1Sc3ccccc3S1)S2	GI50	> 100 µM (inactive)
O=C1O[C@H]2[C@@H]3OC(=O)c4cc(O)c(O)c(O)c4-c4c(cc(O)c(O)c4O)C(=O)OC[C@H]2O[C@@H](OC(=O)c2cc(O)c(O)c(O)c2)[C@@H]3OC(=O)c2cc(O)c(O)c3c2[C@@H]2C1=CC(=O)C(O)(O)C2(O)O3 (some centres undefined)	GI50	36.5 µM (inactive)
C=CCC1(OC(C)=O)C2OC(=O)C1(O)OCC2O (centres undefined)	GI50	> 100 µM (inactive)
CCN(CC)c1ccc(/C=C(\C#N)c2nc(N)nc(N3N=C(C)CC3(C)C)n2)cc1	GI50	8.93 µM (inactive)
CCC1=C(C)/C(=C/c2[nH]c(CBr)c(CC)c2C)N=C1CBr	GI50	12.1 µM (inactive)
N#CCc1cccc(CC#N)c1Br	GI50	35 µM (inactive)
COc1ccc(C(N)=O)c(OC)c1OCc1ccccc1	GI50	0.15 µM (active)
N#CCN1C(=O)c2cccc3cc([N+](=O)[O-])cc(c23)C1=O	GI50	28.4 µM (inactive)
CC1(C)OC(C(=O)Nc2cc3c4ccccc4ccc3c3ccccc23)C(C(=O)N2CCCCC2)O1 (centres undefined)	GI50	1.17 µM (inactive)
